Every entry's value here was drawn from ChEMBL document CHEMBL1148067.

Target: Vasopressin V1a receptor (Rattus norvegicus, UniProt P30560)
Sequence (P30560 whole entry): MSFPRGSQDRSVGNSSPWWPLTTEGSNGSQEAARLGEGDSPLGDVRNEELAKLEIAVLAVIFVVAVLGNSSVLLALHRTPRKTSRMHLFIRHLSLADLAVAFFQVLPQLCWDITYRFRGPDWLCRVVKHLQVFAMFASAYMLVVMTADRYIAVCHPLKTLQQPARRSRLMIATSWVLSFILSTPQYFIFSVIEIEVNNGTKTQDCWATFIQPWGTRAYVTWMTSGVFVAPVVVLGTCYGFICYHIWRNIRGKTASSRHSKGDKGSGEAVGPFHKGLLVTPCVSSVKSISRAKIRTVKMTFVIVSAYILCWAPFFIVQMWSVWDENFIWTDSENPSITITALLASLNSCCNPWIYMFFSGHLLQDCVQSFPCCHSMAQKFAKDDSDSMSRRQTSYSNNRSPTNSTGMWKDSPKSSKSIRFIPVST
Assay: Displacement of [3H]AVP from vasopressin V1a receptor in rat liver membrane by competitive displacement assay
Assay type: cell membranes
Measurement Kind: Ki (µM)
Number only, in µM; omit the unit.

Req: Note Ki for the compound shown: C=C1[C@H]2CC[C@H](CO)[C@@]23CC[C@H](C3)C1(C)C [KHUSIMOL]
Resp: 53

* * *

Biological target: Vasopressin V1a receptor (Rattus norvegicus, UniProt P30560)
Assay: Displacement of [3H]AVP from vasopressin V1a receptor in rat liver membrane
Type: cell membranes
Measurement Kind: pKi
As a rule, pKi stands for the negative log10 of the concentration, concentration in M.

Req: Note pKi for the compound shown: `C=C1[C@H]2CC[C@H](CO)[C@@]23CC[C@H](C3)C1(C)C`
Resp: 4.39

* * *

Biological target: Vasopressin V1a receptor (Rattus norvegicus)
Assay: Displacement of [3H]AVP from vasopressin V1a receptor in rat liver membrane
Assay type: cell membranes
Measurement Kind: IC50 (µM)
Number only, in µM; omit the unit.

Req: Note IC50 for the compound shown: `C=C1[C@H]2CC[C@H](CO)[C@@]23CC[C@H](C3)C1(C)C`
Resp: 125

* * *

Target: Vasopressin V1a receptor (Homo sapiens, UniProt P37288)
Sequence (P37288 whole entry): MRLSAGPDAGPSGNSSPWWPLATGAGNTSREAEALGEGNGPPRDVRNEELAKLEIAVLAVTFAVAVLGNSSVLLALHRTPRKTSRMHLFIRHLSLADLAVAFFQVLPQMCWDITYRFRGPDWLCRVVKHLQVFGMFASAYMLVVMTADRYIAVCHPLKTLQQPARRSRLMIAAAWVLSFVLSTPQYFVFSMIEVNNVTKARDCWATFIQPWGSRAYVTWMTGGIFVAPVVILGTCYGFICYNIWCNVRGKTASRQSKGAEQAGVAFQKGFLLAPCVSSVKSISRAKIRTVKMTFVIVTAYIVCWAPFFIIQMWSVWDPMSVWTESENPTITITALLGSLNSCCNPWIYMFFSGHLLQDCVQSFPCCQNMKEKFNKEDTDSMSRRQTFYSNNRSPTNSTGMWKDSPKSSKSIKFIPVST
Measurement Kind: pKi
As a rule, pKi stands for the negative log10 of the concentration, concentration in M.

Req: Print Vasopressin V1a receptor (Homo sapiens, UniProt P37288) pKi for `CC(=O)NCCCOc1ccc(C(=O)N2CCC(N3C(=O)CCc4ccccc43)CC2)cc1` .
Resp: 6.46
